target: M2 muscarinic receptor (Homo sapiens); construct: expressed in transfected cells; host or cells: CHO (M2-CHO); assay: Functional mobilization of intracellular calcium (FLIPR) in CHO cells expressing M2; format: cell-based; details: CHO; 100% = maximum response obtained with the Carbachol control; read-out: M2 Efficacy
Sequence (P08172 whole entry): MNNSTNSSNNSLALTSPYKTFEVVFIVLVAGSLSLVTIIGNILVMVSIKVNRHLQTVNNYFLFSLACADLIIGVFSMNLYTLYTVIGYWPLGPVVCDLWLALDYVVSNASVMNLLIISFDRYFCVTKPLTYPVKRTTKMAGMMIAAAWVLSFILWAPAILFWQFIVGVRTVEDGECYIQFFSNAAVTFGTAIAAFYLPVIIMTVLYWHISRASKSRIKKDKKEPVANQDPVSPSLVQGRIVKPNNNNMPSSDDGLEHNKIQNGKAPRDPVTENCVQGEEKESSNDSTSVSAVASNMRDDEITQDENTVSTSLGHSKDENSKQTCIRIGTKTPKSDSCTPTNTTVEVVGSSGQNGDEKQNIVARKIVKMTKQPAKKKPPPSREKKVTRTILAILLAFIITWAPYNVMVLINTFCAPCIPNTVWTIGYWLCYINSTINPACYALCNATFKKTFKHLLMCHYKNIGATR
reported.metric: Emax

Give measured Emax for every item shown.
1. CN(C)C(=O)N[C@H]1CCC2(CCN(CCC(C)(C)C)CC2)c2ccccc21 [compound 175]
2. CC(C)(C)CCN1CCC2(CC[C@@H](NC(=O)C3CC3)c3ccccc32)CC1 [compound 3]
3. CC(=O)NCC(=O)N[C@H]1CCC2(CCN(CCC(C)(C)C)CC2)c2cc(F)ccc21 [compound 33]
4. CC(=O)N[C@H]1CCC2(CCN(CC(C)(C)C)CC2)c2ccccc21 [compound 66]

Found:
1. < 25%
2. < 25%
3. 25 to 100%
4. 25 to 100%

* * *

target: M2 muscarinic receptor (Homo sapiens); construct: expressed in transfected cells; host or cells: CHO (M2-CHO); assay: Functional mobilization of intracellular calcium (FLIPR) in CHO cells expressing M2; format: cell-based; conditions: CHO; 100% = maximum response obtained with the Carbachol control; read-out: M2 Efficacy
reported.metric: Emax

Some solved entries appear below for comparison.
{"compound": "C[C@@H](C(=O)N[C@H]1CCC2(CCN(CCC(C)(C)C)CC2)c2ccccc21)N1CCCC1=O", "Emax": "< 25%"}
{"compound": "CC#CCN(C(C)=O)[C@H]1CCC2(CCN(CCC(C)C)CC2)c2ccccc21", "Emax": "< 25%"}
{"compound": "CCN(C(=O)c1cncn1C)[C@H]1CCC2(CCN(CCC(C)(C)C)CC2)c2ccccc21", "Emax": "< 25%"}
{"compound": "CN([C@H]1CCC2(CCN(CCC(C)(C)C)CC2)c2ccccc21)S(C)(=O)=O", "Emax": "< 25%"}
{"compound": "CCN(C(=O)C1CCOCC1)[C@H]1CCC2(CCN(CCC(C)(C)C)CC2)c2ccccc21", "Emax": "< 25%"}

Give measured Emax for every item shown.
1. CC(=O)N1CCCC[C@@H]1C(=O)N[C@@H]1CCC2(CCN(CCC(C)(C)C)CC2)c2cc(F)ccc21
2. CC(C)(C)CCN1CCC2(CC[C@H](NS(C)(=O)=O)c3ccccc32)CC1
3. CCN(C(=O)C1CCC(OC)CC1)[C@H]1CCC2(CCN(CCC(C)(C)C)CC2)c2ccccc21 (stereo partly drawn)
4. CC(=O)N(C)[C@H]1CCC2(CCN(CCC(C)(C)C)CC2)c2ccccc21
5. CCN(C(=O)C1CCC(=O)C1)[C@H]1CCC2(CCN(CCC(C)(C)C)CC2)c2ccccc21 (stereo partly drawn)
6. C[C@H](C(=O)N[C@@H]1CCC2(CCN(CCC(C)(C)C)CC2)c2ccccc21)N1CCCC1=O
7. CC(=O)NCCC(=O)N[C@@H]1CCC2(CCN(CCC(C)(C)C)CC2)c2cc(F)ccc21
8. CN(C(=O)C1CCCC1)[C@H]1CCC2(CCN(CCC(C)(C)C)CC2)c2ccccc21

Found:
25 to 100%
< 25%
25 to 100%
< 25%
< 25%
< 25%
25 to 100%
< 25%

Give measured Emax for every item shown.
1. CC(C)(C)CCN1CCC2(CC[C@@H](NC(=O)CC3CCOCC3)c3ccc(F)cc32)CC1
2. CC(=O)NC(C(=O)N[C@@H]1CCC2(CCN(CCC(C)(C)C)CC2)c2ccccc21)C(C)C (stereo partly drawn)

Found:
["< 25%", "< 25%"]

The reported numbers originate from patent US8003660B2.
